From: ChEMBL document CHEMBL5604062

Molecular target: Nonstructural protein 3 (Zika virus)
Sequence (A0A024AXB9 whole entry): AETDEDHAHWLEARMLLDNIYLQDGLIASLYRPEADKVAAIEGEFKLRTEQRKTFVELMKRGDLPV
Experiment: Functional biochemical assay to identify treatments for viral infectious disease that targets Zika NS2B-NS3 protease. Utilizing a direct enzyme activity measurement method, reading the fluorescence intensity is used to characterize the relative potency of inhibitors as IC50.
Set-up: species or system PRVABC59
reportedProperty: pIC50
Remember the convention: pIC50 equals -log10 of concentration in molar.

O=C(Nc1cc(Cl)cc(C(=O)Nc2ccc([C@]34CNC[C@H]3C4)cc2)c1)OCc1ccccc1 ... 4.67

Asked: Look at this molecule and give its reported pIC50. `NCCc1ccc(NC(=O)c2cc(Cl)cc(NC(=O)OCc3ccccc3)c2)cc1`
Given back: 4.97

Asked: Look at this molecule and give its reported pIC50. `CC(C)NC(=O)[C@H](Nc1ccc2c(c1)CNC2)c1cccc2cn[nH]c12`
Given back: 4.96

Asked: Look at this molecule and give its reported pIC50. `COC1(C(=O)N[C@H](CC(=O)Nc2cccc(CN)c2)c2ccc(OCc3ccccc3)c(Br)c2)CC1`
Given back: 4.31

Asked: Look at this molecule and give its reported pIC50. `NCCc1cccc(NC(=O)[C@H]2[C@H]3CCCCC[C@H]3[C@H]2NC(=O)OCc2ccccc2)c1`
Given back: 5.10

Asked: Look at this molecule and give its reported pIC50. `O=C(Nc1ccc2c(c1)CNC2)c1cc(Cl)cc(N2CCCC2=O)c1`
Given back: 6.73
